molecular target: T1, biotinylated hBLyS-ECD (human, UniProt Q9Y275 134-285, biotinylated with Biotin-X-X-NHS (molar ratio 7:1), sites not stated); assay: ELISA, biotinylated hBLyS-ECD captured on streptavidin; antibody 0 nM (blank)
T1 construct: The hBLyS-ECD of Embodiment 1 after biotinylation (Embodiment 2); also called biotinylated immunogen; BLyS protein; not shown: His tag of the pCPC vector
T1 sequence (Q9Y275 134-285): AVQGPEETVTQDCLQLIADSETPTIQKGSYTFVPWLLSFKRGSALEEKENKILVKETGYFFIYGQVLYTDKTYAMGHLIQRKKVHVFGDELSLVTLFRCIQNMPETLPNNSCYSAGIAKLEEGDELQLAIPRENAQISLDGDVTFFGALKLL
Record form. Attribute: OD450 nm. Fill in for each entry.
Numbers only.

Hi team, please reply with OD450 nm for each item in this list.
1. 97A3C2H4 (antibody, V domains shown, Mouse hybridoma antibody purified on Protein G) VH: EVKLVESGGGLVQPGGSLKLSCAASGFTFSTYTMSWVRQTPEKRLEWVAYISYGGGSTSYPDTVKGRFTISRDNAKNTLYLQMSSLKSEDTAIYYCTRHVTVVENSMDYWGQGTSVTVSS VL: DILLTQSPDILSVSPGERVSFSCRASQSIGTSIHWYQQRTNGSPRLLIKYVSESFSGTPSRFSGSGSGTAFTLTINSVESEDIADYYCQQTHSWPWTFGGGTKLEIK
2. 111D10D6G3 (antibody, V domains shown, Mouse hybridoma antibody purified on Protein G) VH: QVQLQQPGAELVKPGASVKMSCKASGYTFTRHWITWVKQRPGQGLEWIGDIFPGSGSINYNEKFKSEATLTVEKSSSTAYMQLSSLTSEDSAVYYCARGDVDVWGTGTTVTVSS VL: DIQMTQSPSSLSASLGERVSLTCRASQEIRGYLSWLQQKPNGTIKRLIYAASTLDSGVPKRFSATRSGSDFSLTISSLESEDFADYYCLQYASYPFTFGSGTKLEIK
3. 8E7D9C7F5 (antibody, V domains shown, Mouse hybridoma antibody purified on Protein G) VH: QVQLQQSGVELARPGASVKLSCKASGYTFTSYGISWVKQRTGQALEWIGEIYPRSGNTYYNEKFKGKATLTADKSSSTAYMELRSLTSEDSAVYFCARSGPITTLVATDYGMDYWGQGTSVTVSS VL: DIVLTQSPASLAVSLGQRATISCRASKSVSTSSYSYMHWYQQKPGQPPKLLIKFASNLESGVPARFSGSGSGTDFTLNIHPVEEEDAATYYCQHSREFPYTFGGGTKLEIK
4. L1D12 (antibody, human IgG1, V domains shown, also called LID12) VH: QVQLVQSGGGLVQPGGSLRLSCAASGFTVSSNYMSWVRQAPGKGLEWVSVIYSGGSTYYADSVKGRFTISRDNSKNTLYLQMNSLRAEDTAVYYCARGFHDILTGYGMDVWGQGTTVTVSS VL: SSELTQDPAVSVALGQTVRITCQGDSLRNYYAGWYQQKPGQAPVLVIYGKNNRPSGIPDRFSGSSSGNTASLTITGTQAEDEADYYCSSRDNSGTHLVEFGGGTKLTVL

Result:
0.0603
0.0617
0.0564
0.11

Ask: Which value of OD450 nm has been reported for L9G7 (antibody, human IgG1, V domains shown) VH: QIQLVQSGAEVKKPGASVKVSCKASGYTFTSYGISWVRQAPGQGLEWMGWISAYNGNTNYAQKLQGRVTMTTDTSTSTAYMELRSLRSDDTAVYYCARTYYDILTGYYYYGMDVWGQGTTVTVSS VL: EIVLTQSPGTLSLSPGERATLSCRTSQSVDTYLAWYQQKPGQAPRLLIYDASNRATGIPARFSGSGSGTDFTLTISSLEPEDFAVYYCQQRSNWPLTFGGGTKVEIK in the records?
Result: 0.071
